Tested target: T1, human calcitonin receptor (human, UniProt P30988 25-474)
T1 sequence (looked up): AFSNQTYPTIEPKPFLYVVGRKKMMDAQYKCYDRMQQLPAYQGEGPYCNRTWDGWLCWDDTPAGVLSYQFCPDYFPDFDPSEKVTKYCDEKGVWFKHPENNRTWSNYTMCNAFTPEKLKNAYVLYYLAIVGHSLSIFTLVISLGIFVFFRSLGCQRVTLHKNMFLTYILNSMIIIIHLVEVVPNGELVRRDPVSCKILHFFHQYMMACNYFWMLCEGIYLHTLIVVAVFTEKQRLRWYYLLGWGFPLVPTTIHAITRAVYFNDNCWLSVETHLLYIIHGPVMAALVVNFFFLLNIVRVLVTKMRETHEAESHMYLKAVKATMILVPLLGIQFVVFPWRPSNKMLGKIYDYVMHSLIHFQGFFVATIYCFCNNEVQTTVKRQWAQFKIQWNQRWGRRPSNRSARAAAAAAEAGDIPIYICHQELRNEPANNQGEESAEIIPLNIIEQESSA
Method summary: cell-based or functional assay
Numbered stars: 1 amine (or outer) side, 2 acyl side, 3 side chain; on linkers, the order of the positions; unused ones are H or OH. Bridge positions count the residues as written; N and C are the ends. Side chains are listed from the residue outwards. Ends that are not written are not given here. * marks the point of attachment. C20 diacid = O=C(O)CCCCCCCCCCCCCCCCCCC(=O)*; γGlu = O=C(O)[C@H](CCC(=O)[*:2])N[*:1]
Listed next: entries and their corresponding hCTR funct. EC50 (pM), CRE-luciferase reporter in BHK calcitonin (a) receptor cells.
Numeric answer only, unit pM assumed.

K([γGlu-γGlu-C20 diacid])CNTATCATQRLAEFLRHSSPNFGAIPSSTNVGPNTF-NH2 (disulfide 2-7 (inferred), Synthetic acylated analogue of human amylin) has a reported hCTR funct. EC50 (pM), CRE-luciferase reporter in BHK calcitonin (a) receptor cells of 2140

---
What the record says about K([γGlu-γGlu-C20 diacid])CNTATCATQRLAEFLRHSSNNPGAILSSTNVGPETY-NH2 (disulfide 2-7 (inferred), Synthetic acylated analogue of human amylin) : hCTR funct. EC50 (pM), CRE-luciferase reporter in BHK calcitonin (a) receptor cells is 89600

Record summary for K([γGlu-C20 diacid])CNTATCATQRLAEFLRHSSPNFGAIPSSTNVGSHTY-NH2 (disulfide 2-7 (inferred), Synthetic acylated analogue of human amylin) : reported hCTR funct. EC50 (pM), CRE-luciferase reporter in BHK calcitonin (a) receptor cells = 5580

Form: binder = K([γGlu-γGlu-C20 diacid])CNTATCATQRLAEFLRHSSPNFGAIPSSTNVGPETP-NH2 (disulfide 2-7 (inferred), Synthetic acylated analogue of human amylin) ; hCTR funct. EC50 (pM), CRE-luciferase reporter in BHK calcitonin (a) receptor cells = 102
